- System: 873145-292-R-J1-PDC complex spheroid viability;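 also: spheroids exposed to compounds for 7 days before viability readout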
- ASSAY PROTOCOL: Anticancer human tumor 873145-292-R-J1-PDC patient-derived renal clear cell carcinoma cell line growth inhibition [POLQ]
- CONDITION DESCRIPTION: curve of first compound; second compound 0.1 µM
The following compounds are shown together with reported IC50 values.

Consider the worked cases shown below.
Record CCc1cc2c(N3CCc4c(cc(Cn5ccnc5)cc4-c4cn(C)nc4C(F)(F)F)C3=O)ccnc2c(OC)n1 + Cc1cccc(N(C)C(=O)C2C(O)CCN2c2nc(C)cc(C(F)(F)F)c2C#N)c1 , field IC50: > 10 µM

Record COc1ccc([C@@H](O)c2cc(-c3ncnc4cc(N5CCOCC5)ccc34)c(F)cc2Cl)nn1 + COC1C(OC(N)=O)C(O)C(Oc2ccc3c(O)c(NC(=O)c4ccc(O)c(CC=C(C)C)c4)c(=O)oc3c2C)OC1(C)C , field IC50: 4.1 µM

---
Record COc1cccc(OCCCN)c1-c1cc(Nc2cnc(C#N)cn2)n[nH]1 + Cc1cccc(N(C)C(=O)C2C(O)CCN2c2nc(C)cc(C(F)(F)F)c2C#N)c1 , field IC50: > 1 µM
